- measurement.protocol: yeast display, Sf9 membrane polyspecificity reagent, FACS + sequencing; frameworks hold sequencing errors
recorded.metric: polyreactivity (PSR sort gate)

Illustrative cases are given below, each with its answer.
| sequence.input | recorded.metric | data.value |
| --- | --- | --- |
| QVQLVESGGGLVQAGGSLRLSCAASGRTFYTNAMGCYRQAPGKERELVARIRRGGTTNYADSVKGRFTISRDNAKNTVYLQMNSLKPEDTAVYYCSYSYGYWGQGTQVTVSS | polyreactivity (PSR sort gate) | high polyreactivity |
| QVQLVESGGGLVQAGGSLRLSCAASGFIFVGYAMGWYRQAPGKERELVAAISKSGGSTYYADSVKGRFTISRDNAKNTVYLQMNSLKPEDTAVYYCAAAYASRNYRGLDYWGQGIQVTVSS | polyreactivity (PSR sort gate) | high polyreactivity |
| QVQLVESGGGLVQAGGSLRLSCAASGNTLWRNAMGWSRQAPGKERELVATISSVGTYYADSVKGRFTISRDNAKNTVYLQMNSLKPEDTAVYYCAARIWAFYSRRYYWGQGTQVTVSS | polyreactivity (PSR sort gate) | high polyreactivity |
| QVQLVESGGGLVQAGGSLRLSCAASGRTFYRYAMGWYRQAPGKERELVAAIRWSGGSTYYADSVKGRFTISRDNAKNTVYLQMNSLKPEDTAVYYCAARAIQLVDGRYKVRMDYWGQGTQVTVSS | polyreactivity (PSR sort gate) | low polyreactivity |
| QVQLVESGGGLVQAGGSLRLSCAASGFIFYRYAMGWYRQAPGKERELVASITKRGGSTRYADSVKGRFTISRDNAKNTVYLQMNSLKPEDTAVYYCAKVPYSTAFDYWGQGTQVTVSS | polyreactivity (PSR sort gate) | high polyreactivity |

QVQLVESGGGLVQAGGSLRLSCAATGSIFGKYAMGWSRQAPGKERELVAVITWSGGSTYYADSVKGRFTISRDNAKNTVYLQMNSLKPEDTAVYYCNAANTGSQDYQSIGYNFNYWGQGTQVTVSS has a reported polyreactivity (PSR sort gate) of low polyreactivity

QVQLVESGGGLVQAGGSLRLRSASSGYILFAYAMVWYRQAPGKERELVATISNYGGITYYAESVKGRFTISRDNAKNTVYLQMNRLKPEDNAVYYCAAAEAGGLVTYDYWGQGTQVTVSS has a reported polyreactivity (PSR sort gate) of low polyreactivity

QVQLVESGGGLVQAGGSLRLSCAASGSTFRYYDRGWYRQAPGKERELVAAITTSGDDTYYADSVKRRFTISRDNAKTTVYLQMNSLKPEDTAVYYCAADGYGGHKYELESWGQGTQVTVSS has a reported polyreactivity (PSR sort gate) of low polyreactivity

QVQLVESGGGLVQAGGSLRLSCAASGSTFGRYVMGWYRPAPGKERELVAAISKNAGSTYYADSVKGRFTISRDNAKNTVYLQMNSLKPEDTAVYYCNAQSFREYGYWGQGTQVTVSS has a reported polyreactivity (PSR sort gate) of high polyreactivity

QVQLVESGGGLVQAGGSLRLSCAASGSNFGPNAMGWYRQAPGKERELVAVISFRGGNTYYADSVKGRFTISRDNAKNTVYLQMNSLKPEDTAVYYCAARGYRYGYGYWGQGTQVTVSS has a reported polyreactivity (PSR sort gate) of high polyreactivity

QVQLVESGGGLVQAGGSLRLSCAASGSTFGSNAMGWYRQAPGKERELVAAISSSGSTYYADSVKGRFTISRDNAKNTVYLQMNSLKPEDTAVYYSAAPGSPYGYWGQGTQVTVSW has a reported polyreactivity (PSR sort gate) of high polyreactivity

QVQLVESGGGLVQAGGSLRLSCAASGITFWYYAMGWYRQAPGKERELVAAINWSGGSTYYADSVKGRFTISRDNAKNTVYLQMNSLKPEDTAVYYCAAEFGLWPYEYGYWGQGTQVTVSS has a reported polyreactivity (PSR sort gate) of high polyreactivity

QVQLVESGGGLDQAGGSLPLSCAASGSTFPGNAMGWYSQARGKERELVARINDGADTNYADSVKGRFTISRDNAKNTVYLQMNSLKPEDTAVYYCAADKRGTVYLSSFWMDYWGQGTQVTVSS has a reported polyreactivity (PSR sort gate) of low polyreactivity

QVQLVESGGGLVQAGGRLRLSCAASGSIFVPNAMGWYRQALGKDRELVAAITYSGVDTYYADSVMGRFTISRDNAKNTVYLQMNSLKPEDTAVYYCAADNGRVGYDYWGQGTQVSVSS has a reported polyreactivity (PSR sort gate) of low polyreactivity
